# study-target: non-isoprenylated RAC1 full-length (RAC1^FL) (human, UniProt P63000 1-192)
# measurement-description: FP; mdGDP-bound RAC1
pKd: −log10 of the molar value.
experimental-readout: pKd

GDI1^ΔN25 (domain or fragment) NYKPPAQKSIQEIQELDKDDESLRKYKEALLGRVAVSADPNVPNVVVTGLTLVCSSAPGPLELDLTGDLESFKKQSFVLKEGVEYRIKISFRVNREIVSGMKYIQHTYRKGVKIDKTDYMVGSYGPRAEEYEFLTPVEEAPKGMLARGSYSIKSRFTDDDKTDHLSWEWNLTIKKDWKD	3.76
GDI1^E121K (natural protein) MAEQEPTAEQLAQIAAENEEDEHSVNYKPPAQKSIQEIQELDKDDESLRKYKEALLGRVAVSADPNVPNVVVTGLTLVCSSAPGPLELDLTGDLESFKKQSFVLKEGVEYRIKISFRVNRKIVSGMKYIQHTYRKGVKIDKTDYMVGSYGPRAEEYEFLTPVEEAPKGMLARGSYSIKSRFTDDDKTDHLSWEWNLTIKKDWKD	4.85
GDI1^ΔN15 (domain or fragment) AENEEDEHSVNYKPPAQKSIQEIQELDKDDESLRKYKEALLGRVAVSADPNVPNVVVTGLTLVCSSAPGPLELDLTGDLESFKKQSFVLKEGVEYRIKISFRVNREIVSGMKYIQHTYRKGVKIDKTDYMVGSYGPRAEEYEFLTPVEEAPKGMLARGSYSIKSRFTDDDKTDHLSWEWNLTIKKDWKD	3.99

Source: paper PMC8622166
